Examples of compounds with documented viability, T/C follow.
# System: 855422-203-R-J1-PDC complex spheroid viability;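 note: drug exposure lasted 7 days starting on day 3 after seeding; luminescence viability as percent of DMSO vehicle wells = 100%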
# assay-notes: Anticancer human tumor 855422-203-R-J1-PDC patient-derived bladder carcinoma cell line growth inhibition
# assay-context: second compound 3.16 µM; first compound 1 µM; active compounds read low

• COc1cc(Nc2ncc3c(n2)-c2ccc(Cl)cc2C(c2c(F)cccc2OC)=NC3)ccc1C(=O)O + NC1CCC(NC2CC2c2ccccc2)CC1 = 48.8%

Ask: Which viability, T/C value is on record for O=C(c1cc(Cc2n[nH]c(=O)c3ccccc23)ccc1F)N1CCN(C(=O)C2CC2)CC1 + NC1CC1c1ccc(-c2cccc(O)c2)cc1 ?
Reply: 91.3%

Ask: Which viability, T/C value is on record for COc1ccc([C@@H](O)c2cc(-c3ncnc4cc(N5CCOCC5)ccc34)c(F)cc2Cl)nn1 + NC1CCC(NC2CC2c2ccccc2)CC1 ?
Reply: 68.2%

Ask: Which viability, T/C value is on record for O=C(C=Cn1cnc(-c2cc(C(F)(F)F)cc(C(F)(F)F)c2)n1)NNc1cnccn1 + NC1CC1c1ccc(-c2cccc(O)c2)cc1 ?
Reply: 18.9%

Ask: Which viability, T/C value is on record for CC(C)c1c(-c2ccccc2)nc2c(C#N)c[nH]n2c1=O + NC1CCC(NC2CC2c2ccccc2)CC1 ?
Reply: 77.1%

Ask: Which viability, T/C value is on record for O=C(c1cc(Cc2n[nH]c(=O)c3ccccc23)ccc1F)N1CCN(C(=O)C2CC2)CC1 + NC1CCC(NC2CC2c2ccccc2)CC1 ?
Reply: 87.7%

Ask: Which viability, T/C value is on record for Nc1ncn(C2CC(O)C(CO)O2)c(=O)n1 (centres undefined) + NC1CC1c1ccc(-c2cccc(O)c2)cc1 ?
Reply: 84.2%

Ask: Which viability, T/C value is on record for O=C(C=Cn1cnc(-c2cc(C(F)(F)F)cc(C(F)(F)F)c2)n1)NNc1cnccn1 + NC1CCC(NC2CC2c2ccccc2)CC1 ?
Reply: 27.9%

Ask: Which viability, T/C value is on record for CC1(C)CCC(CN2CCN(c3ccc(C(=O)NS(=O)(=O)c4ccc(NCC5CCOCC5)c([N+](=O)[O-])c4)c(Oc4cnc5[nH]ccc5c4)c3)CC2)=C(c2ccc(Cl)cc2)C1 + NC1CC1c1ccc(-c2cccc(O)c2)cc1 ?
Reply: 91.1%

Ask: Which viability, T/C value is on record for CC1COCCN1c1cc(-c2ccnn2C)c2ccnc(-c3ccn[nH]3)c2n1 (centres undefined) + NC1CC1c1ccc(-c2cccc(O)c2)cc1 ?
Reply: 29.5%

Ask: Which viability, T/C value is on record for CC(C)c1c(-c2ccccc2)nc2c(C#N)c[nH]n2c1=O + NC1CC1c1ccc(-c2cccc(O)c2)cc1 ?
Reply: 88.9%

Ask: Which viability, T/C value is on record for CC1(C)CCC(CN2CCN(c3ccc(C(=O)NS(=O)(=O)c4ccc(NCC5CCOCC5)c([N+](=O)[O-])c4)c(Oc4cnc5[nH]ccc5c4)c3)CC2)=C(c2ccc(Cl)cc2)C1 + NC1CCC(NC2CC2c2ccccc2)CC1 ?
Reply: 101%

Ask: Which viability, T/C value is on record for Nc1ncn(C2CC(O)C(CO)O2)c(=O)n1 (centres undefined) + NC1CCC(NC2CC2c2ccccc2)CC1 ?
Reply: 88.9%

Ask: Which viability, T/C value is on record for CC1COCCN1c1cc(-c2ccnn2C)c2ccnc(-c3ccn[nH]3)c2n1 (centres undefined) + NC1CCC(NC2CC2c2ccccc2)CC1 ?
Reply: 27.2%
